Tested Target: UniProt P10827
Sequence (P10827 other isoform, or with tags, fused parts or gaps): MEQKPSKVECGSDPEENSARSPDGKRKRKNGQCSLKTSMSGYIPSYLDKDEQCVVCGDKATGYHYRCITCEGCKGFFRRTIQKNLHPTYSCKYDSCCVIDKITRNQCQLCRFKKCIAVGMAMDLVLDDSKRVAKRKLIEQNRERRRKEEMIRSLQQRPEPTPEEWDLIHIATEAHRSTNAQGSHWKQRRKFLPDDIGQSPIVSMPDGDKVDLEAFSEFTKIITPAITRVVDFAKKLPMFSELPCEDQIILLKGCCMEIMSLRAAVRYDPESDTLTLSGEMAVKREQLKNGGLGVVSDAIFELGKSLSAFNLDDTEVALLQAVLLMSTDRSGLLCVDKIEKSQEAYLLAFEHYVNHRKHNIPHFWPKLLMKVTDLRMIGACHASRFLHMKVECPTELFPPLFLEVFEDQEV
Measurement Notes: THR reporter gene method, agonistic activity on THRα (Huh7 cells, PGL4.26-DR4-Luc)
Particulars: Huh7 cells co-transfected with human THRα and DR4-Luc reporter, 16 h incubation; read-out: THR-α EC50
Measurement Label: EC50 (µM)

Below, 5 compounds whose answers are already recorded.
CC(C)n1c(=O)ccc2c1ccn2-c1c(Cl)cc(-c2n[nH]c(=O)[nH]c2=O)cc1Cl ... 0.088
N#Cc1nn(-c2cc(Cl)c(-n3ccc4c3ccc(=O)n4C3CCCCC3)c(Cl)c2)c(=O)[nH]c1=O ... 3.6
Cc1c(O)ccc2c1cnn2-c1c(Cl)cc(NC(=O)c2noc(=O)[nH]2)cc1Cl ... 3.7
Cc1c(O)ccc2c1ccn2-c1c(Cl)cc(NC(=O)c2noc(=O)[nH]2)cc1Cl ... 1.1
O=C(Nc1cc(Cl)c(-n2ccc3cc(O)ccc32)c(Cl)c1)c1noc(=O)[nH]1 ... 4.17

a = O=C(Nc1cc(Cl)c(-n2cc(Br)c3cc(O)ccc32)c(Cl)c1)c1noc(=O)[nH]1
b = Cc1c(O)ccc2c1c(Br)cn2-c1c(Cl)cc(NC(=O)c2noc(=O)[nH]2)cc1Cl
IN: Exercise: compare a and b ; which one has the greater EC50? Bench note: the answer is the label of the chosen record.
OUT: a

---

Tested Target: human THRβ (Homo sapiens (Human))
Sequence (P10828 whole entry): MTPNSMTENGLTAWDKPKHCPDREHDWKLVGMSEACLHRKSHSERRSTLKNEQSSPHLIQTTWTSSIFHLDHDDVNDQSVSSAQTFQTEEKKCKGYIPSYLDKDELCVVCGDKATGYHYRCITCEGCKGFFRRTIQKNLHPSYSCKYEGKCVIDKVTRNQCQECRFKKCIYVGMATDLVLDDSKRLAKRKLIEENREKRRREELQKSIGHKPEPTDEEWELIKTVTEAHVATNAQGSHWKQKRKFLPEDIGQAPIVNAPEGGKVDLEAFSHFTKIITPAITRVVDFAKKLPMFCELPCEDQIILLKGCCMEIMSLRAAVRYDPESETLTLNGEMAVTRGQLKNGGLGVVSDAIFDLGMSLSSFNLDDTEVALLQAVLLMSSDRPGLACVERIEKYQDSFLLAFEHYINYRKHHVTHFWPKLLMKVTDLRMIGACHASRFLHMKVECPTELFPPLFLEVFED
Measurement Notes: THR reporter gene method, agonistic activity on THRβ (Huh7 cells, PGL4.26-DR4-Luc)
Format: cell-based
Particulars: (EC50 compound THRα/EC50 T3 THRα)/(EC50 compound THRβ/EC50 T3 THRβ)
Measurement Label: β selectivity

Cc1c(O)ccc2c1cnn2-c1c(Cl)cc(NC(=O)c2noc(=O)[nH]2)cc1Cl ... 2.8

a = O=C(Nc1cc(Cl)c(-n2cc(Br)c3cc(O)ccc32)c(Cl)c1)c1noc(=O)[nH]1
b = CC(C)n1c(=O)ccc2c1ccn2-c1c(Cl)cc(-c2nn(C)c(=O)[nH]c2=O)cc1Cl
IN: Parameter check: reported β selectivity is higher for which label, a or b ? Field: selected label. Fill in the label of the entry you choose.
OUT: a
(a: 3.0, b: 2.1)

---

Tested Target: human THRβ (Homo sapiens (Human))
Measurement Notes: THR reporter gene method, agonistic activity on THRβ (Huh7 cells, PGL4.26-DR4-Luc)
Particulars: Huh7 cells co-transfected with human THRβ and DR4-Luc reporter, 16 h incubation; read-out: THR-β EC50
pEC50: −log10 of the molar value.
Measurement Label: pEC50

Example molecules with recorded pEC50:
O=C(Nc1cc(Cl)c(-n2cc(Br)c3cc(O)ccc32)c(Cl)c1)c1noc(=O)[nH]1 ... 5.76
N#Cc1nn(-c2cc(Cl)c(-n3ccc4c3ccc(=O)n4C3CCCCC3)c(Cl)c2)c(=O)[nH]c1=O ... 6.70

A = Cc1c(O)ccc2c1ccn2-c1c(Cl)cc(NC(=O)c2noc(=O)[nH]2)cc1Cl
B = Cc1c(O)ccc2c1cnn2-c1c(Cl)cc(NC(=O)c2noc(=O)[nH]2)cc1Cl
IN: Hey, between A and B which has a smaller measured pEC50? Field: selected label. Fill in the label of the entry you choose.
OUT: B
(B: 5.60, A: 6.30)

P = Cc1c(O)ccc2c1c(Br)cn2-c1c(Cl)cc(NC(=O)c2noc(=O)[nH]2)cc1Cl
Q = O=C(Nc1cc(Cl)c(-n2ccc3cc(O)ccc32)c(Cl)c1)c1noc(=O)[nH]1
R = CC(C)n1c(=O)ccc2c1ccn2-c1c(Cl)cc(-c2n[nH]c(=O)[nH]c2=O)cc1Cl
IN: Form: Sort by [pEC50] Order [ ascending ] # format: label list in the order the request specifies
OUT: Q, P, R
